measured.quantity: melting point (°C)

See these solved cases before continuing.
{"molecule": "CCOP(=O)(OCC)Oc1cc(C)ccc1C1CCN(CCCCNC(=O)c2ccc(NC(=O)c3ccc(Cl)cc3)cc2)CC1", "melting point (°C)": 230}
{"molecule": "Cc1ccc(C2CCN(CCCCNC(=O)c3ccc(-c4ccc(C#N)cc4)cc3)CC2)c(O)c1", "melting point (°C)": 184}
{"molecule": "CC(=O)Oc1cc(C)ccc1C1CCN(CCCCNC(=O)c2ccc(NC(=O)c3ccc(Cl)cc3)cc2)CC1", "melting point (°C)": 210}

[a] CCc1ccc(C2CCN(CCCCNC(=O)c3ccc(-c4ccc(C#N)cc4)cc3)CC2)c(O)c1
[b] Cc1ccc(C2CCN(CCCCNC(=O)c3ccc(-c4ccc(C#N)cc4)cc3)CC2)c(OP(=O)(O)O)c1
Please state the entry with greater melting point among a and b . Write down the label attached to your selection.
a
(a: 252 °C, b: 70 °C)
